Recorded IC50 by entry
Biological target: recombinant human ARG1 (Homo sapiens)
Sequence (P05089 1-322): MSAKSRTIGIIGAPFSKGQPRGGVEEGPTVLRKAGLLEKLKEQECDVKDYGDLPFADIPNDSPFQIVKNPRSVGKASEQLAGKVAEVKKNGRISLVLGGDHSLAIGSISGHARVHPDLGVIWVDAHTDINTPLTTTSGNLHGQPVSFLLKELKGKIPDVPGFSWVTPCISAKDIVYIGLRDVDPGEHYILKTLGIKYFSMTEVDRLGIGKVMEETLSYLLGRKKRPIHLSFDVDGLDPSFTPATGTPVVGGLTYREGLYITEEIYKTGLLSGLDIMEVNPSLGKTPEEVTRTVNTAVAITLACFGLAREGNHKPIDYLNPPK
Experiment: Arginase coupled enzymatic assay using recombinant human ARG1
Details: 2 nM ARG1, 0.8 mM L-Arginine, 10 mM sodium phosphate pH 7.4, 0.1 mM MnCl2, 37° C., absorption at 570 nm; read-out: hARG1 potency (IC50)
Experimental: Purified recombinant human ARG1 and ARG2 were prepared in 50 mM Bicine, pH 8.5, 100 μM MnCl2, 20% glycerol and 1mM DTT at a final stock concentration of 14.4 μM and 7.56 μM respectively. […] The plate was immediately put into a plate reader (Synergy™ Neo2 Multi-Mode Microplate Reader) to monitor absorption at 570 nm at 37° C. […] A counter-screen was performed to identify any inhibition of the coupling enzymes by the test compounds. […] Absorption was monitored at 570 nm as described above. […]
readout name: IC50

>>> experimental_value("N[C@@]1(C(=O)O)c2cccnc2C[C@@H]1CCCB(O)O")
"> 1000 nM"
>>> experimental_value("CN[C@@]1(C(=O)O)c2cc(C3(N)CCC3)ccc2C[C@@H]1CCCB(O)O")
"< 100 nM"
>>> experimental_value("CC[C@H](NC)c1cc2c(cc1F)C[C@H](CCCB(O)O)[C@]2(NC)C(=O)O")
"< 100 nM"
>>> experimental_value("CN[C@@]1(C(=O)O)c2cc(-c3ncccc3N)c(F)cc2C[C@@H]1CCCB(O)O")
"100 to 1000 nM"
>>> experimental_value("CN[C@@]1(C(=O)O)c2cc([C@@H]3CCCN3)c(F)cc2C[C@@H]1CCCB(O)O")
"< 100 nM"
>>> experimental_value("NCCc1cccc2c1C[C@H](CCCB(O)O)[C@]2(N)C(=O)O")
"100 to 1000 nM"
>>> experimental_value("CN[C@@]1(C(=O)O)c2c(F)cc(CN)cc2C[C@@H]1CCCB(O)O")
"100 to 1000 nM"
>>> experimental_value("CN(C)[C@@]1(C(=O)O)c2cc(CN)ccc2C[C@@H]1CCCB(O)O")
"100 to 1000 nM"
>>> experimental_value("CN[C@@]1(C(=O)O)c2cc(C(C)(C)N)c(Cl)cc2C[C@@H]1CCCB(O)O")
"< 100 nM"
>>> experimental_value("CN[C@@]1(C(=O)O)c2cc(C3(N)CCCCC3)c(F)cc2C[C@@H]1CCCB(O)O")
"< 100 nM"
>>> experimental_value("N#Cc1ccc2c(c1)[C@@](N)(C(=O)O)[C@@H](CCCB(O)O)C2")
"> 1000 nM"
>>> experimental_value("CN[C@@]1(C(=O)O)c2cc(C3(C(N)=O)CCC3)c(F)cc2C[C@@H]1CCCB(O)O")
"100 to 1000 nM"
>>> experimental_value("CN[C@@]1(C(=O)O)c2cc(N3CC[C@H](O)C3)c(F)cc2C[C@@H]1CCCB(O)O")
"100 to 1000 nM"
>>> experimental_value("CN[C@@]1(C(=O)O)c2cc(-c3ccccc3CO)c(F)cc2C[C@@H]1CCCB(O)O")
"100 to 1000 nM"
>>> experimental_value("C[C@]1(CCCB(O)O)Cc2ccccc2[C@@]1(N)C(=O)O")
"> 1000 nM"
>>> experimental_value("CN[C@@]1(C(=O)O)c2cc(C(C)(C)CN)c(F)cc2C[C@@H]1CCCB(O)O")
"< 100 nM"
>>> experimental_value("CN[C@@]1(C(=O)O)c2cc(CN3CCC(c4ccccc4)CC3)c(F)cc2C[C@@H]1CCCB(O)O")
"< 100 nM"
>>> experimental_value("CN[C@@]1(C(=O)O)c2cc(-c3ccc(F)cc3CN)c(F)cc2C[C@@H]1CCCB(O)O")
"< 100 nM"
>>> experimental_value("CN[C@@]1(C(=O)O)c2cc(-c3ccccn3)c(F)cc2C[C@@H]1CCCB(O)O")
"100 to 1000 nM"
>>> experimental_value("CNCc1cc2c(cc1Cl)C[C@H](CCCB(O)O)[C@]2(NC)C(=O)O")
"< 100 nM"
>>> experimental_value("CN[C@@]1(C(=O)O)c2cc([C@H](N)C(C)C)c(F)cc2C[C@@H]1CCCB(O)O")
"< 100 nM"
>>> experimental_value("CN[C@@]1(C(=O)O)c2cc(OCCN)ccc2C[C@@H]1CCCB(O)O")
"< 100 nM"
>>> experimental_value("CN[C@@]1(C(=O)O)c2cc([C@@H](N)C(F)(F)F)ccc2C[C@@H]1CCCB(O)O")
"100 to 1000 nM"
>>> experimental_value("CN[C@@]1(C(=O)O)c2cc([C@H](C)N)ccc2C[C@@H]1CCCB(O)O")
"< 100 nM"
>>> experimental_value("CN[C@@]1(C(=O)O)c2cc(-c3cccc(CN)c3)c(Cl)cc2C[C@@H]1CCCB(O)O")
"< 100 nM"
>>> experimental_value("CN[C@@]1(C(=O)O)c2cc(C3(N)CCCC3)c(F)cc2C[C@@H]1CCCB(O)O")
"< 100 nM"
>>> experimental_value("CN[C@@]1(C(=O)O)c2cccc(CN)c2C[C@@H]1CCCB(O)O")
"< 100 nM"
>>> experimental_value("N[C@@]1(C(=O)O)c2ccccc2C[C@@H]1CCCB(O)O")
"100 to 1000 nM"

###

Recorded pIC50 by entry
Target: recombinant human ARG1 (Homo sapiens)
Test: Arginase coupled enzymatic assay using recombinant human ARG1
Conditions: 2 nM ARG1, 0.8 mM L-Arginine, 10 mM sodium phosphate pH 7.4, 0.1 mM MnCl2, 37° C., absorption at 570 nm; read-out: hARG1 potency (IC50)
pIC50: −log10 of the molar value.
readout name: pIC50

>>> experimental_value("CN[C@@]1(C(=O)O)c2cc(OC)c(CN)cc2C[C@@H]1CCCB(O)O")
"> 7.00"
>>> experimental_value("CC[C@@](C)(N)c1cc2c(cc1F)C[C@H](CCCB(O)O)[C@]2(NC)C(=O)O")
"> 7.00"
>>> experimental_value("CN[C@@]1(C(=O)O)c2cc([C@@H](C)N)c(Cl)cc2C[C@@H]1CCCB(O)O")
"> 7.00"
>>> experimental_value("CN[C@@]1(C(=O)O)c2cc(O[C@@H]3CCC[C@H]3N)c(F)cc2C[C@@H]1CCCB(O)O")
"> 7.00"
>>> experimental_value("CN[C@@]1(C(=O)O)c2cc([C@@H](N)C3CC3)c(F)cc2C[C@@H]1CCCB(O)O")
"> 7.00"
>>> experimental_value("CN[C@@]1(C(=O)O)c2cc(C3(N)CCC3)c(Cl)cc2C[C@@H]1CCCB(O)O")
"> 7.00"
>>> experimental_value("CN[C@@]1(C(=O)O)c2cc([C@H]3CCCN3)c(F)cc2C[C@@H]1CCCB(O)O")
"> 7.00"
>>> experimental_value("CN[C@@]1(C(=O)O)c2cc(-c3cccc(F)c3C(C)(C)N)c(F)cc2C[C@@H]1CCCB(O)O")
"> 7.00"
>>> experimental_value("CC[C@H](N)c1cc2c(cc1Cl)C[C@H](CCCB(O)O)[C@]2(NC)C(=O)O")
"> 7.00"
>>> experimental_value("CN[C@@]1(C(=O)O)c2cc([C@H](N)C3CC3)c(F)cc2C[C@@H]1CCCB(O)O")
"> 7.00"
>>> experimental_value("CN[C@@]1(C(=O)O)c2cc([C@H](C)N)c(OC)cc2C[C@@H]1CCCB(O)O")
"> 7.00"
>>> experimental_value("CN[C@@]1(C(=O)O)c2cc(CN)c(F)cc2C[C@@H]1CCCB(O)O")
"> 7.00"
>>> experimental_value("Cc1ccc2c(c1)C[C@H](CCCB(O)O)[C@]2(N)C(=O)O")
"< 6.00"
>>> experimental_value("CC[C@@H](NC)c1cc2c(cc1F)C[C@H](CCCB(O)O)[C@]2(NC)C(=O)O")
"> 7.00"
>>> experimental_value("CN[C@@]1(C(=O)O)c2cc([C@H](N)C3CC3)c(Cl)cc2C[C@@H]1CCCB(O)O")
"> 7.00"
>>> experimental_value("CN[C@@]1(C(=O)O)c2cc(C3(C(C)(C)N)CCC3)c(F)cc2C[C@@H]1CCCB(O)O")
"> 7.00"
>>> experimental_value("N[C@@]1(C(=O)O)c2cccc(CO)c2C[C@@H]1CCCB(O)O")
"< 6.00"
>>> experimental_value("CN[C@@]1(C(=O)O)c2cc(CNC(C)C)c(F)cc2C[C@@H]1CCCB(O)O")
"> 7.00"
>>> experimental_value("CN[C@@]1(C(=O)O)c2cc([C@H](C)N)c(Cl)cc2C[C@@H]1CCCB(O)O")
"> 7.00"
>>> experimental_value("CN[C@@]1(C(=O)O)c2cc(C3(NC(=O)[C@H](C)N)CCC3)c(F)cc2C[C@@H]1CCCB(O)O")
"6.00 to 7.00"
>>> experimental_value("CN[C@@]1(C(=O)O)c2cc(CN3CCCCC3(C)C)c(F)cc2C[C@@H]1CCCB(O)O")
"> 7.00"
>>> experimental_value("CN[C@@]1(C(=O)O)c2cc(Nc3ccccn3)c(F)cc2C[C@@H]1CCCB(O)O")
"6.00 to 7.00"
>>> experimental_value("CC[C@@H](N)c1cc2c(cc1Cl)C[C@H](CCCB(O)O)[C@]2(NC)C(=O)O")
"> 7.00"
>>> experimental_value("CN[C@@]1(C(=O)O)c2cc(CN)ccc2C[C@@H]1CCCB(O)O")
"> 7.00"
>>> experimental_value("CN[C@@]1(C(=O)O)c2cc(CCCN)c(F)cc2C[C@@H]1CCCB(O)O")
"> 7.00"
